Test system: Escherichia coli TOP10
test.protocol: shrunken log2 fold change of peptide-encoding DNA abundance (4.5 h post-induction vs induction); higher = less antimicrobial activity (less host growth inhibition)
setup.conditions: time post-induction: 4.5 h; library: site-saturation at positions 5, 18, 19, 20
parameter.measured: shrunken log2 fold change
No unit in the answer, please; the number alone is enough.

Entry `RRIRNRPPRLPRPRPRPLLRPRP` — recorded shrunken log2 fold change = -0.267

Per the records, this sequence ( `RRIRGRPPRLPRPRPRPMTEPRP` ) has shrunken log2 fold change equal to 0.0819

# shrunken log2 fold change of `RRIRWRPPRLPRPRPRPVSVPRP` = -0.258

For reference, reported shrunken log2 fold change for `RRIRNRPPRLPRPRPRPSHKPRP` stands at -0.291

The recorded shrunken log2 fold change for entry `RRIRFRPPRLPRPRPRPEPWPRP` equals 0.172

Reported shrunken log2 fold change ( `RRIRSRPPRLPRPRPRPVLGPRP` ) = 0.447

Lab book: shrunken log2 fold change of `RRIRSRPPRLPRPRPRPLPTPRP` noted as 0.446

For `RRIRRRPPRLPRPRPRPQDFPRP` the sequence record lists shrunken log2 fold change as -0.078

shrunken log2 fold change reading for `RRIRVRPPRLPRPRPRPSSGPRP` : -0.39

Consider `RRIRKRPPRLPRPRPRPNEFPRP` . Its measured shrunken log2 fold change is -0.042

Briefly, shrunken log2 fold change measured for `RRIRMRPPRLPRPRPRPDTSPRP` : 1.47

`RRIRWRPPRLPRPRPRPVAKPRP` has a reported shrunken log2 fold change of 0.404

###

Test system: Escherichia coli TOP10
test.protocol: shrunken log2 fold change of peptide-encoding DNA abundance (4.5 h post-induction vs induction); higher = less antimicrobial activity (less host growth inhibition)
setup.conditions: time post-induction: 4.5 h; library: site-saturation at positions 5, 18, 19, 20
Classes (shrunken log2 fold change): LOW: < -0.04; MID: ≥ -0.04 and < 0.08; HIGH: ≥ 0.08

Bin this entry: `RRIRRRPPRLPRPRPRPMPWPRP`
HIGH

Place this sequence in its band: `RRIRWRPPRLPRPRPRPTHAPRP`
HIGH

Sort into band: `RRIRARPPRLPRPRPRPAKDPRP`
HIGH

Could you place `RRIRPRPPRLPRPRPRPAAPPRP` in its proper category? Many thanks.
HIGH

Form field 'band' for `RRIRNRPPRLPRPRPRPVQWPRP`
MID

Could you tell me which band `RRIRLRPPRLPRPRPRPQKMPRP` belongs to?
MID

Place this sequence in its band: `RRIRDRPPRLPRPRPRPQGCPRP`
MID

Please let me know in which category the item `RRIRYRPPRLPRPRPRPICEPRP` belongs.
LOW

Which of the defined bands does the recorded shrunken log2 fold change of `RRIRHRPPRLPRPRPRPITNPRP` sit within?
LOW

Entry `RRIRARPPRLPRPRPRPAYTPRP` belongs to which category?
LOW

# bin label for `RRIRVRPPRLPRPRPRPDNIPRP`
LOW

Class label required: `RRIRIRPPRLPRPRPRPANGPRP`
MID

Band for the recorded shrunken log2 fold change of `RRIRERPPRLPRPRPRPGKSPRP` ?
MID

###

Tested on: Escherichia coli TOP10;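 note: peptides expressed intracellularly from a pBAD plasmid library in pooled LB shake-flask culture, induced with 0.3% L-arabinose, DNA abundance read by NGS, three biological replicates, DESeq2 with apeglm shrinkage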
test.protocol: shrunken log2 fold change of peptide-encoding DNA abundance (4.5 h post-induction vs induction); higher = less antimicrobial activity (less host growth inhibition)
setup.conditions: time post-induction: 4.5 h; library: site-saturation at positions 5, 18, 19, 20
parameter.measured: shrunken log2 fold change
I'd appreciate a reply containing only the number, no unit.

// shrunken log2 fold change lookup, sequence = `RRIRGRPPRLPRPRPRPVDCPRP` , result: 0.496

Entry under test: `RRIRWRPPRLPRPRPRPHKVPRP` . Its shrunken log2 fold change was -0.431

Entry `RRIRIRPPRLPRPRPRPSLQPRP` ; shrunken log2 fold change = -0.331

response.value for `RRIRERPPRLPRPRPRPYNAPRP` (field: shrunken log2 fold change) = -1.26

Noted for `RRIRKRPPRLPRPRPRPSHMPRP` : its shrunken log2 fold change reads -0.0291

shrunken log2 fold change for `RRIRLRPPRLPRPRPRPGHAPRP` is 0.21

In plain terms, `RRIRKRPPRLPRPRPRPPVKPRP` has a documented shrunken log2 fold change of 0.181

Note to self: shrunken log2 fold change recorded for `RRIRIRPPRLPRPRPRPCLHPRP` was -0.174

Briefly, shrunken log2 fold change measured for `RRIRARPPRLPRPRPRPQSLPRP` : 0.026

Measured shrunken log2 fold change, `RRIRKRPPRLPRPRPRPSYNPRP` : -0.397

shrunken log2 fold change measured on `RRIRDRPPRLPRPRPRPMANPRP` = -0.0338

The sequence listed as `RRIRMRPPRLPRPRPRPHDRPRP` shows shrunken log2 fold change equal to 0.0623

Noted for `RRIRWRPPRLPRPRPRPFKNPRP` : its shrunken log2 fold change reads -0.274

Given item `RRIRSRPPRLPRPRPRPWWAPRP` , the value recorded as its shrunken log2 fold change is -0.0137

Note to self: shrunken log2 fold change recorded for `RRIRWRPPRLPRPRPRPIGFPRP` was 0.0993

Recorded result, `RRIRNRPPRLPRPRPRPMIPPRP` , shrunken log2 fold change: 0.0389

Entry `RRIRYRPPRLPRPRPRPMPAPRP` ; shrunken log2 fold change = 0.348

The sequence identified as `RRIRARPPRLPRPRPRPSCMPRP` registered its shrunken log2 fold change at 0.29

Noted for `RRIRMRPPRLPRPRPRPMARPRP` : its shrunken log2 fold change reads 0.465

Lab book: shrunken log2 fold change of `RRIRVRPPRLPRPRPRPLPRPRP` noted as 0.642

Entry `RRIRVRPPRLPRPRPRPNAVPRP` — recorded shrunken log2 fold change = -0.223

# shrunken log2 fold change (sequence: `RRIRERPPRLPRPRPRPRCSPRP` ) is 0.0243

The sequence listed as `RRIRHRPPRLPRPRPRPCHTPRP` shows shrunken log2 fold change equal to -0.0375

Summary for this sequence, `RRIRRRPPRLPRPRPRPIGRPRP` : shrunken log2 fold change is 0.00106

For reference, reported shrunken log2 fold change for `RRIRKRPPRLPRPRPRPLWLPRP` stands at 0.377

The sequence identified as `RRIRVRPPRLPRPRPRPKNFPRP` registered its shrunken log2 fold change at 0.0772
